# subjectOfTest: E. coli MurC (Escherichia coli)
# Sequence (P17952 whole entry): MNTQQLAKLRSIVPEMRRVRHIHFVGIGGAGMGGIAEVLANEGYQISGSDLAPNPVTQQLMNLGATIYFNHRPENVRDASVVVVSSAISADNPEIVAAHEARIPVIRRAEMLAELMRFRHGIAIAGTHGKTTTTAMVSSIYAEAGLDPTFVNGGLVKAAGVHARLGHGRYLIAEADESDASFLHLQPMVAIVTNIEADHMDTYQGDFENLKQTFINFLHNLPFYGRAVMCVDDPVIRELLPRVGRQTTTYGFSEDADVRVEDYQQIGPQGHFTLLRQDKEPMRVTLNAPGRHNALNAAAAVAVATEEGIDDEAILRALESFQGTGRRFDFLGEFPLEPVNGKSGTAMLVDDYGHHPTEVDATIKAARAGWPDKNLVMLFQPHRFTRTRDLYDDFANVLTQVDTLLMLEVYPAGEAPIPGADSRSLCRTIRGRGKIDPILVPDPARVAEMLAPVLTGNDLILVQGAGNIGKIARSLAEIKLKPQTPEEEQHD
# runDescription: Malachite green inhibition assay, MurC
# Type: biochemical
# conditionParameters: 0.25 h, read-out: RA [%] at 100 µM MurC, Table S1, PKIS screening
Task for the reader: assign each of the following compounds its reported remaining activity at 100 µM.
// note: answer is a bare numeric in %

Problem: // output remaining activity at 100 µM; input COc1cc(C)c(N(C)C(=O)CN(C)C)cc1Nc1nc(Nc2cccc(F)c2C(N)=O)c2cc[nH]c2n1 [GSK2219385A] ; system E. coli MurC (Escherichia coli)
Result: 73

Problem: // output remaining activity at 100 µM; input `N#Cc1ccc(Oc2nccc(-c3c(-c4ccc(F)cc4)ncn3C3CCNCC3)n2)cc1` ; system E. coli MurC (Escherichia coli)
Result: 48

Problem: // output remaining activity at 100 µM; input `CN1CCC(n2cnc(-c3ccc(F)cc3)c2-c2ccnc(N)n2)CC1` ; system E. coli MurC (Escherichia coli)
Result: 76

Problem: // output remaining activity at 100 µM; input FC(F)(F)c1ccc(-c2nn3ncccc3c2-c2ccnc(Nc3ccc4c(c3)OCCO4)n2)cc1 [GW828525X] ; system E. coli MurC (Escherichia coli)
Result: 21

Problem: // output remaining activity at 100 µM; input `COc1ccc(-c2nn3ncccc3c2-c2ccnc(Nc3cccc(C(F)(F)F)c3)n2)cc1` ; system E. coli MurC (Escherichia coli)
Result: 10

Problem: // output remaining activity at 100 µM; input `CCc1ccc(Oc2nccc(-c3c(-c4ccc(F)cc4)ncn3C3CCNCC3)n2)cc1` ; system E. coli MurC (Escherichia coli)
Result: 51

Problem: // output remaining activity at 100 µM; input COc1ccc(-c2nn3ncccc3c2-c2ccnc(Nc3ccc4c(c3)OCCO4)n2)cc1 [GW827106X] ; system E. coli MurC (Escherichia coli)
Result: 13

Problem: // output remaining activity at 100 µM; input `Fc1ccc(-c2ncn(C3CCNCC3)c2-c2ccnc(Oc3ccc4c(c3)OCO4)n2)cc1` ; system E. coli MurC (Escherichia coli)
Result: 51
